growth for assorted compounds
system: NCI-H460 lung; assay: NCI-60 one-dose screen, 48 h (100 = growth as untreated, 0 = no growth, -100 = all killed); details: 10 µM unless noted
This is part of a sample that, as a whole, favours compounds with a hit. Of some 83,000 tested, about 20% had one in any assay.
# value in %; strip the unit string

Look over these answered cases.
> print(dat)
                                   compound    test.target  units.symbol  experimental.value
1  C#C[C@]1(O)CC[C@H]2[C@@H]3CC=C4c5sc(Nc6cc(C)cc(C)c6)nc5CC[C@]4(C)[C@H]3CC[C@@]21C  NCI-H460 lung             %                12.2
2  C#C[C@]1(O)CC[C@H]2[C@@H]3CC=C4c5sc(Nc6cc(Cl)ccc6OC)nc5CC[C@]4(C)[C@H]3CC[C@@]21C  NCI-H460 lung             %                  17
3  CCNC(=O)Oc1ccc(/C(=C(/C)c2ccc(OC)cc2)c2ccc(OCCN3CCCCCC3)cc2)cc1  NCI-H460 lung             %                16.7
4  COc1cc(NC(=O)Nc2cccc(-c3cc(=O)c4c(OC)c(OC)c(OC)cc4o3)c2)cc(OC)c1OC  NCI-H460 lung             %                31.5
5  NC(=O)n1c(=O)n(-c2cccc(C(F)(F)F)c2)c(=O)c2cc(-c3ccc(F)cc3F)ccc21  NCI-H460 lung             %                4.55

INPUT: For `CCc1nnc(NC(=O)c2cc(-c3ccc(Cl)cc3Cl)oc2C)s1` , what is its reported growth?
OUTPUT: 53.9

INPUT: For `Cc1ccc(C(=O)Nc2ccc(CNCCN3CCOCC3)c(C(F)(F)F)c2)cc1C#Cc1cnc2cccnn12` , what is its reported growth?
OUTPUT: 18.9

INPUT: # query: growth of entry Cc1[nH]c(C(=O)Nc2ccc(C(N)=O)cc2N2CCOC(C)C2)c(Cl)c1Cl (stereo not drawn)
OUTPUT: 102
